meta.source: patent US9303033B2

target: recombinant human PIM2 (Homo sapiens (Human)); assay: PIM-2 assay (33P-ATP filter binding); type: biochemical; conditions: PIM2: IC50 (5 μM ATP), 5 μM ATP
Sequence (Q9P1W9 whole entry): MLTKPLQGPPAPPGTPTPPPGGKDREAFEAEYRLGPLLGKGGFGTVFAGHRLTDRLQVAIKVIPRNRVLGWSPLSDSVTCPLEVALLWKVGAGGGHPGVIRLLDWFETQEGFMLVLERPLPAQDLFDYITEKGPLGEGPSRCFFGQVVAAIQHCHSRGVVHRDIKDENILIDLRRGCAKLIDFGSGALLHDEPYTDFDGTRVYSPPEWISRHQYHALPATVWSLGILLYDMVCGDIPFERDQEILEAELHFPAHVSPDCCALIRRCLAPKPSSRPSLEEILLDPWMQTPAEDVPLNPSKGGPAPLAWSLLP
pIC50: −log10 of the molar value.
# Lookup of reported pIC50 keyed by entry
measuredParameter: pIC50

                                   molecule  measuredparameter  observedvalue
0  O=C1NC(=O)/C(=C/c2cnn3c(NC4CC4)cc(-c4ccnc(F)c4)nc23)N1 [Example O4]              pIC50         < 5.60
1  CC(C)(C)OC(=O)c1cccc(Nc2cc(Nc3cccc(Cl)c3)nc3c(/C=C4\NC(=O)NC4=O)cnn23)c1 [Example B7]              pIC50         < 5.60
2  O=C1NC(=O)/C(=C/c2cnn3c(NC4CC4)cc(Nc4ccc(Cl)cc4)nc23)N1 [Example I1]              pIC50         < 5.60
3  CCN(CC)c1cc(NC2CC2)n2ncc(/C=C3\SC(=O)NC3=O)c2n1 [Example L3]              pIC50           5.84
